# TARGET_OR_SYSTEM: T1, monomeric human PRLR (hPRLR.mmh; SEQ ID NO:401) (Homo sapiens, UniProt P16471)
# T1 construct: soluble monomeric (hPRLR.mmh); mmh (myc-myc-hexahistidine) (C)
# T1 sequence (P16471 with tags, fused parts or gaps): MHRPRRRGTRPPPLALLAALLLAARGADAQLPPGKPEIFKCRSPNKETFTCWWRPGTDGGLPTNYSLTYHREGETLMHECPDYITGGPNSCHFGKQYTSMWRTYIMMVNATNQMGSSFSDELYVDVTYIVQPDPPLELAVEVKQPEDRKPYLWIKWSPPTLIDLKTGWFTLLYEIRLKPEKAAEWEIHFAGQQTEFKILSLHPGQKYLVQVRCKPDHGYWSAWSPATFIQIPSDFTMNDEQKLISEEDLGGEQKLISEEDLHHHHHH
# EXPERIMENT_SUMMARY: Surface plasmon resonance (Biacore T200), antibody-capture format
# Type: binding
# MEASUREMENT_PARAMETERS: 37° C., analyte hPRLR.mmh
PARAMETER: ka (M/s)
# unit: M/s | format: bare number

*Q* Which ka value is on record for H1H6785P: fully human anti-PRLR antibody, human IgG1 Fc; HCVR/LCVR SEQ ID NOs 98/106 (antibody, V domains shown) VH: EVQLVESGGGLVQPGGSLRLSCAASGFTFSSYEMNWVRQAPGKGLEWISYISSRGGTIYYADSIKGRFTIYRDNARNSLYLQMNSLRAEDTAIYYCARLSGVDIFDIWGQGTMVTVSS VL: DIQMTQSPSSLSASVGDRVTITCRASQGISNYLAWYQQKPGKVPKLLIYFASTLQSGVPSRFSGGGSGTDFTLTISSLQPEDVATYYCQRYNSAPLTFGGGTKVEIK ?
*A* 426000
